Values from patent US8415272B2

Recorded inhibition of growth at 60 ppm by entry
System: Fusarium culmorum
Test: Growth inhibition in nutrient broth, Fusarium culmorum (root rot), photometric
Type: cell-based
Details: 48 h, read-out: control of fungal infection, Fusarium culmorum

C#Cc1cnc2ccc(OC(SC)C(=O)NC(C)(C)CC#N)cc2c1 (stereo not drawn) : ≥ 60%
C#Cc1cnc2c(C)cc(OC(SC)C(=O)NC(C)(C)CF)cc2c1 (stereo not drawn) : ≥ 60%
C#Cc1cnc2c(C)cc(OC(CC)C(=O)NC(C)(C)C)cc2c1 (stereo not drawn) : ≥ 60%

Specify reported inhibition of growth at 60 ppm for the molecule shown: C#Cc1cnc2ccc(OC(SC)C(=O)NC(C)(C#C)CC)cc2c1 (stereo not drawn) ≥ 60%

Read the entry C#Cc1cnc2cc(F)c(OC(CC)C(=O)NC(C)(C)C=O)cc2c1 (stereo not drawn) and write its reported inhibition of growth at 60 ppm. ≥ 60%

Give the reported inhibition of growth at 60 ppm for this molecule. C#Cc1cnc2ccc(OC(SC)C(=O)NC(C)(C)COC)cc2c1 (stereo not drawn) ≥ 60%

Determine from records and report inhibition of growth at 60 ppm for C#Cc1cnc2ccc(OC(SC)C(=O)NC(C)(C#C)C#C)cc2c1 (stereo not drawn) ≥ 60%

Indicate its recorded inhibition of growth at 60 ppm; the molecule in question is C#CC(C)(C)NC(=O)C(Oc1ccc2ncc(C#CC)cc2c1)SC (stereo not drawn) ≥ 60%

Given C#Cc1cnc2cc(F)c(OC(SC)C(=O)NC(C)C)cc2c1 (stereo not drawn) , respond with its inhibition of growth at 60 ppm. ≥ 60%

###

Recorded measurements of pest or weed control at 200 ppm, one per entry
System: Plasmopara viticola
Assay: Leaf disk assay, Plasmopara viticola (downy mildew of grapevine), preventive
Assay type: in vivo
Conditions: foliar, 168 h, grapevine leaf disks, assessed seven days after inoculation, read-out: control of fungal infection, Plasmopara viticola

CC#Cc1cnc2ccc(OC(SC)C(=O)NC(C)(C)C#CCOC)cc2c1 (stereo not drawn) [Example 55] : ≥ 60%
C#CC(C)(C)NC(=O)C(Oc1ccc2ncc(C#CCO)cc2c1)SC (stereo not drawn) [Example 51] : ≥ 60%
CSC(Oc1cc(C)c2ncc(C#CCO)cc2c1)C(=O)NC(C)(C)C (stereo not drawn) [Example 17] : ≥ 60%
C#Cc1cnc2c(Cl)cc(OC(SC)C(=O)NC(C)(C)C#C)cc2c1 (stereo not drawn) [Example 19] : ≥ 60%
C#Cc1cnc2c(C)cc(OC(SC)C(=O)NC(C)(C)COC)cc2c1 (stereo not drawn) [Example 13] : ≥ 60%

Supply pest or weed control at 200 ppm value. Item: C#Cc1cnc2c(F)cc(OC(SC)C(=O)NC(C)(C)C#CCOC)cc2c1 (stereo not drawn) [Example 218] ≥ 60%

Kindly indicate its recorded pest or weed control at 200 ppm. Item: C#Cc1cnc2c(Cl)cc(OC(SC)C(=O)NC(C)(C#N)COC)cc2c1 (stereo not drawn) [Example 64] ≥ 60%

Give pest or weed control at 200 ppm for the following compound: C#Cc1cnc2ccc(OC(SC)C(=O)NC3(C=O)CCC3)cc2c1 (stereo not drawn) [Example 150] ≥ 60%

Hello, please tell me recorded pest or weed control at 200 ppm for this one: C#Cc1cnc2ccc(OC(OC)C(=O)NC(C)(C)C)cc2c1 (stereo not drawn) [Example 87] ≥ 60%

###

Consider the following compounds and their measured melting point readings.

Field: example entries. Status: answers known.
C#Cc1cnc2ccc(OC(SC)C(=O)N(O)C(C)(C)C)cc2c1 (stereo not shown) : 164 °C
C#Cc1cnc2ccc(OC(SC)C(=O)NC(C)(C#C)CO)cc2c1 (stereo not shown) [Compound 173] : 150 to 155 °C
C#Cc1cnc2c(F)cc(OC(SC)C(=O)NC(C)C)cc2c1 (stereo not shown) : 135 to 136 °C

Kindly review the next compound as well.
Give the reported melting point for this compound. C#Cc1cnc2ccc(OC(SC)C(=O)NC3CSC3)cc2c1 (stereo not shown) 150 to 152 °C

###

Tested on: Fusarium culmorum
Test: Growth inhibition in nutrient broth, Fusarium culmorum (root rot), photometric
Type: cell-based
Conditions: 48 h, read-out: control of fungal infection, Fusarium culmorum
quantity: inhibition of growth at 60 ppm

C#Cc1cnc2ccc(OC(SC)C(=O)NC(C)(C)C#C)cc2c1 (stereo not shown) : ≥ 60%
C#CCOCC#CC(C)(C)NC(=O)C(Oc1cc(C)c2ncc(C#C)cc2c1)SC (stereo not shown) : ≥ 60%
CSC(Oc1ccc2ncc(C#CCCl)cc2c1)C(=O)NC(C)(C)C (stereo not shown) : ≥ 60%
C#Cc1cnc2cc(F)c(OC(SC)C(=O)NC(C)(C)C#C)cc2c1 (stereo not shown) : ≥ 60%
C#Cc1cnc2cc(F)c(OC(SC)C(=O)NC(C)(C#C)CC)cc2c1 (stereo not shown) : ≥ 60%
C#CCOCC#CC(C)(C)NC(=O)C(Oc1cc2cc(C#C)cnc2cc1F)SC (stereo not shown) : ≥ 60%
C#Cc1cnc2ccc(OC(OC)C(=O)NC(C)(C)C#C)cc2c1 (stereo not shown) : ≥ 60%
C#Cc1cnc2c(C)cc(OC(CC)C(=O)NC(C)(C)C#C)cc2c1 (stereo not shown) : ≥ 60%
CC#Cc1cnc2ccc(OC(SC)C(=O)NC(C)(C)C)cc2c1 (stereo not shown) : ≥ 60%
C#Cc1cnc2c(Br)cc(OC(SC)C(=O)NC(C)(C)C#C)cc2c1 (stereo not shown) : ≥ 60%

State its inhibition of growth at 60 ppm for this compound: C#Cc1cnc2c(Cl)cc(OC(SC)C(=O)NC(C)(C)C#CC)cc2c1 (stereo not shown) ≥ 60%

Hello, please tell me recorded inhibition of growth at 60 ppm for this one: CSC(Oc1ccc2ncc(C#CCF)cc2c1)C(=O)NC(C)(C)C (stereo not shown) ≥ 60%

###

quantity: melting point

Here's what some known entries look like.
C#Cc1cnc2ccc(OC(SC)C(=O)NC3(C)CSC3)cc2c1 (stereo not drawn) : 132 to 134 °C
C#Cc1cnc2ccc(OC(SC)C(=O)NC(C)(C#C)CO)cc2c1 (stereo not drawn) [Compound 160] : 149 to 150 °C
C#Cc1cnc2ccc(OC(SC)C(=O)NC3COC3)cc2c1 (stereo not drawn) : 98 to 100 °C

Tell us which melting point value is on record for C#Cc1cnc2ccc(OC(SC)C(=O)NC(C)(C)CO)cc2c1 (stereo not drawn) 149 to 151 °C

Consider the compound C#Cc1cnc2cc(F)c(OC(SC)C(=O)NC(C)(C#N)CO)cc2c1 (stereo not drawn) . State its measured melting point. 80 to 83 °C

Please give the documented melting point of C#CCOCC(C)(COCC#C)NC(=O)C(Oc1ccc2ncc(C#C)cc2c1)SC (stereo not drawn) [Example 12c] 95 to 100 °C

Supply reported melting point belonging to this compound: C#Cc1cnc2ccc(OC(SC)C(=O)NC(C)(C#N)CO)cc2c1 (stereo not drawn) [Example 12d] 78 to 80 °C

Tell me melting point reported for C#Cc1cnc2c(Cl)cc(OC(SC)C(=O)NC3(C)CCC3)cc2c1 (stereo not drawn) 121 to 123 °C

Return value of melting point for input C#Cc1cnc2ccc(OC(SC)C(=O)NC3(C)COC3)cc2c1 (stereo not drawn) , no commentary. 61 to 65 °C

###

Test system: Fusarium culmorum
Experiment: Growth inhibition in nutrient broth, Fusarium culmorum (root rot), photometric
Assay type: cell-based
Settings: 48 h, read-out: control of fungal infection, Fusarium culmorum
Entries and their inhibition of growth at 60 ppm values follow.

Illustrative cases are given below, each with its answer.
C#Cc1cnc2c(C)cc(OC(SC)C(=O)NC(C)(C)COC)cc2c1 (stereo not drawn) : ≥ 60%
C#Cc1cnc2c(Cl)cc(OC(SC)C(=O)NC(C)(C)C)cc2c1 (stereo not drawn) : ≥ 60%
C#Cc1cnc2ccc(OC(SC)C(=O)NC3CCCC3)cc2c1 (stereo not drawn) : ≥ 60%
C#Cc1cnc2ccc(OC(SC)C(=O)NC(C)(C)C#CCOC)cc2c1 (stereo not drawn) : ≥ 60%

Report inhibition of growth at 60 ppm for C#CCC(C)(C)NC(=O)C(Oc1ccc2ncc(C#C)cc2c1)SC (stereo not drawn) ≥ 60%

Return reported inhibition of growth at 60 ppm. Input molecule: C#Cc1cnc2cc(F)c(OC(SC)C(=O)NC(C)(C)C#CCCOC)cc2c1 (stereo not drawn) ≥ 60%

Read the entry C#CCC(C)(C)NC(=O)C(Oc1cc(Cl)c2ncc(C#C)cc2c1)SC (stereo not drawn) and write its reported inhibition of growth at 60 ppm. ≥ 60%

Assign inhibition of growth at 60 ppm to the following record: C#Cc1cnc2ccc(OC(SC)C(=O)NC(C#C)(CC)CC)cc2c1 (stereo not drawn) ≥ 60%

Determine its reported inhibition of growth at 60 ppm: C#Cc1cnc2ccc(OC(CC)C(=O)NC(C)(C)CO)cc2c1 (stereo not drawn) ≥ 60%

###

Tested on: Plasmopara viticola
Assay: Leaf disk assay, Plasmopara viticola (downy mildew of grapevine), preventive
Type: in vivo
Conditions: foliar, 168 h, grapevine leaf disks, assessed seven days after inoculation, read-out: control of fungal infection, Plasmopara viticola
pest or weed control at 200 ppm listing for selected compounds.

C#Cc1cnc2ccc(OC(OC)C(=O)NC(C)(C)CO)cc2c1 (stereo not shown) [Example 220] : ≥ 60%
C#Cc1cnc2ccc(OC(SC)C(=O)NC3CCCC3)cc2c1 (stereo not shown) [Example 214] : ≥ 60%
C#Cc1cnc2c(C)cc(OC(SC)C(=O)NC(C)(C)C=O)cc2c1 (stereo not shown) [Example 73] : ≥ 60%
C#Cc1cnc2c(C)cc(OC(SC)C(=O)NC(C)(C=O)COC)cc2c1 (stereo not shown) [Example 134] : ≥ 60%
CCC#CC(C)(C)NC(=O)C(Oc1cc(Cl)c2ncc(C#C[Si](C)(C)C)cc2c1)SC (stereo not shown) [Example 119] : ≥ 60%
C#Cc1cnc2c(Cl)cc(OC(SC)C(=O)NC3(C)CCC3)cc2c1 (stereo not shown) [Example 203] : ≥ 60%
C#CC(C)(C)NC(=O)C(Oc1ccc2ncc(C#CC)cc2c1)SC (stereo not shown) [Example 57] : ≥ 60%
C#Cc1cnc2c(C)cc(OC(SC)C(=O)NC(C)(C#C)COC)cc2c1 (stereo not shown) [Example 135] : ≥ 60%
CC#CC(C)(C)NC(=O)C(Oc1ccc2ncc(C#CCO)cc2c1)SC (stereo not shown) [Example 50] : ≥ 60%
C#CCOCC#CC(C)(C)NC(=O)C(Oc1cc(Cl)c2ncc(C#C)cc2c1)SC (stereo not shown) [Example 63] : ≥ 60%

Quick one: give measured pest or weed control at 200 ppm for C#Cc1cnc2cc(F)c(OC(SC)C(=O)NC(C)(C)C#CC)cc2c1 (stereo not shown) [Example 107] ≥ 60%

Quick one: give measured pest or weed control at 200 ppm for C#Cc1cnc2ccc(OC(SC)C(=O)NC3(CO)CCC3)cc2c1 (stereo not shown) [Example 148] ≥ 60%

Give pest or weed control at 200 ppm for the following compound: C#Cc1cnc2c(F)cc(OC(SC)C(=O)NC(C)(C)C)cc2c1 (stereo not shown) [Example 201] ≥ 60%
